Where do these numbers come from? They come from patent US20200123233A1.

target: FTM-NN protein (membrane anchorless form of the Long fusion protein of hRSV, 70 kDa) (human respiratory syncytial virus, …, UniProt P12568 26-524); assay: competition ELISA, periplasmic extract diluted 1:300, competitor 101F Fab
observation-type: % Inhibition 101F Fab (1:300 PE) (%)
The response must be a number in % with no trailing unit.

// known answers, use as guide
Quick note, % Inhibition 101F Fab (1:300 PE) for PMP13E12 (VHH) VHH: EVQLVESGGGLVQAGGSLRLSCAASGRTFSRYIMGWFRQAPGKEREFVGAISRSGDITSFADFVKGRFTMSRDNAKNTLYLQMNSLEPEDTAVYSCAANSDTYYIYSDIVVPERYDYWGQGTQVTVSS landed at 28

Value of % Inhibition 101F Fab (1:300 PE) reported for the binder PMP19E2 (VHH) VHH: EVQLVESGGGLVQPGGSLRLSCAASGLTLDYYALGWFRQAPGKEREGVSCISSSDHTTTYTDSVKGRFTISWDNAKNTLYLQMNSLKPEDTAVYYCAADPALGCYSGSYYPRYDFWGQGTQVTVSS is 27

The value of % Inhibition 101F Fab (1:300 PE) measured for the binder PMP13B4 (VHH) VHH: EVQLVESGGGLVQAGGSLRLSCAASGFTFDDYAIGWFRQAPGKEREAVSCISSSDGSTYYADSVKGRFTISSDNAKNMVYLQMNSLKPEDTAVYYCAADLLRTAVGCLDYRGTYYPRTTMDYRGKGTLVTVSS turned out to be 47

Now look at this entry.
PMP13C1 (VHH) VHH: EVQLVESGGGLVQPGGSLRLSCEASGFTWDYYVIGWFRQAPGKEREGLSCISSDGSTTYADSVKGRFTISRDNAKNTVYLQMNSLEPEDTAVYYCATDPALGCYSGSYYPRYDYWGQGTQVTVSS has a reported % Inhibition 101F Fab (1:300 PE) of 37
